FYI, the data here is from paper PMC10397247.

Target of assay: T1, 4H3364-bH
T1 chain: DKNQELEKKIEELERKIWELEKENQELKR
Assay method text: two-hybrid library CCNG1;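 also: natural log of median RNA to DNA barcode read ratio; higher means stronger binding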
Readout: interaction score

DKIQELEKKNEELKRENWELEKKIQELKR [4H2518-bH]	0.178
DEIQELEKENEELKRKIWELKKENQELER [4H235-bH]	-0.442
DKIQELKKKNEELKRKIWELEKEIQELER [4H3041-bH]	-1.08
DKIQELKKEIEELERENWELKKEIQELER [4H2585-bH]	-0.536
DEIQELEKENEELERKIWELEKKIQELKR [4H166-bH]	-1.32
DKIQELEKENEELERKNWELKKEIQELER [4H2233-bH]	-0.899
DEIQELEKKIEELEREIWELEKKNQELKR [4H264-bH]	0.996
